Target: Tyrosine-protein kinase Fgr (Homo sapiens)
Test: Competitive binding affinity to FGR (unknown origin) at 10 uM in presence of ATP relative to control
readout_label: inhibition (%)

>  <record_smiles>
O[C@H]1CC[C@H](Nc2nccc(-n3nnc4ccccc43)n2)CC1

>  <output_unit>
%

>  <inhibition>
75

$$$$
>  <record_smiles>
O=C([C@H]1CC[C@H](Nc2nccc(-n3nnc4ccccc43)n2)CC1)N1CCOCC1

>  <output_unit>
%

>  <inhibition>
82

$$$$
>  <record_smiles>
N[C@H]1CC[C@H](Nc2nccc(-n3nnc4ccccc43)n2)CC1

>  <output_unit>
%

>  <inhibition>
80

$$$$
>  <record_smiles>
O[C@H]1CC[C@H](Nc2nccc(-c3n[nH]c4ccccc34)n2)CC1

>  <output_unit>
%

>  <inhibition>
80

$$$$
